The reported measurements were obtained from patent US8063048B2.

quantity.name: melting point

Please review the following examples before continuing.
compound: CC(=O)N(C(C)=O)c1ncc(C#Cc2cnn3c(C(F)(F)F)cc(-c4ccc(C(F)(F)F)cc4)nc23)cn1
measured: 253 to 254 °C
--
compound: FC(F)(F)c1ccc(-c2cc(C(F)(F)F)n3ncc(C#Cc4ccncc4)c3n2)cc1
measured: 252 to 256 °C
--
compound: FC(F)(F)c1ccc(-c2cc(C(F)(F)F)n3ncc(C#Cc4ccccc4)c3n2)cc1
measured: 144 to 145 °C

GET /values?readout=melting point&item= Nc1ccc(C#Cc2cnn3ccc(-c4ccc(C(F)(F)F)cc4)nc23)cn1
213 to 214 °C

###

quantity.name: melting point

Please review the following examples before continuing.
compound: O=S(=O)(c1cncc(C#Cc2cnn3c(C(F)(F)F)cc(-c4ccc(C(F)(F)F)cc4)nc23)c1)N(CCO)CCO [Example 13]
melting point: 173 to 178 °C
//
compound: O=S(=O)(NCCc1ccncc1)c1ccc(C#Cc2cnn3c(C4CC4)cc(-c4ccc(Cl)cc4)nc23)s1 [Example 318]
melting point: 172 to 174 °C
//
compound: Nc1ncc(C#Cc2cnc3c(C(F)(F)F)cc(-c4ccc(C(F)(F)F)cc4)nn23)cn1 [Example 243]
melting point: 220 to 221 °C
//
compound: CN(C)CCNS(=O)(=O)c1ccc(C#Cc2cnn3c(C(F)(F)F)cc(-c4cccc(C(F)(F)F)c4)nc23)s1 [Example 251]
melting point: 197 °C
//
compound: FC(F)(F)c1ccc(-c2cc(C(F)(F)F)c3ncc(C#Cc4cccnc4)n3c2)cc1 [Example 190]
melting point: 169 to 170 °C

Shift focus to the following entry.
GET /values?readout=melting point&item= O=S(=O)(c1ccc(C#Cc2cnn3c(C(F)(F)F)cc(-c4cccc(C(F)(F)F)c4)nc23)s1)N(CCO)CCO [Example 266]
129 °C

###

quantity.name: melting point

Please review the following examples before continuing.
compound: FC(F)(F)c1ccc(-c2cc(C(F)(F)F)n3ncc(C#Cc4cnc(Cl)nc4)c3n2)cc1
melting point: 157 to 159 °C

compound: CNS(=O)(=O)c1cccc(C#Cc2cnn3c(C(F)(F)F)cc(-c4ccc(C(F)(F)F)cc4)nc23)c1
melting point: 213 to 214 °C

compound: NS(=O)(=O)c1cncc(C#Cc2cnn3c(C4CC4)cc(-c4ccc(C(F)(F)F)cc4)nc23)c1
melting point: 276 to 277 °C

compound: COc1ccc(C#Cc2cnn3c(C(F)F)cc(-c4ccc(C(F)(F)F)cc4)nc23)cc1S(=O)(=O)NC(C)(C)CO
melting point: 178 to 180 °C

compound: Nc1ccc(C#Cc2cnn3c(C4CC4)cc(-c4ccc(C(F)(F)F)cc4)nc23)cn1
melting point: 228 to 231 °C

compound: O=S(=O)(c1ccc(C#Cc2cnn3c(C(F)(F)F)cc(-c4ccc(C(F)(F)F)cc4)nc23)cc1)N1CCOCC1
melting point: 229 to 231 °C

Shift focus to the following entry.
GET /values?readout=melting point&item= NS(=O)(=O)c1ccc(C#Cc2cnn3c(C4CC4)cc(-c4ccc(Cl)c(Cl)c4)nc23)cc1
259 to 261 °C

###

Quick reference for melting point among some compounds

compound: NS(=O)(=O)c1ccc(C#Cc2cnn3c(C(F)F)cc(-c4cccc(C(F)(F)F)c4)nc23)s1
measured: 225 °C
--
compound: NS(=O)(=O)c1cc(C#Cc2cnn3c(C4CC4)cc(-c4ccc(Cl)cc4)nc23)c(F)cc1F
measured: 272 to 275 °C
--
compound: O=S(=O)(NC(CO)(CO)CO)c1cncc(C#Cc2cnn3c(C(F)(F)F)cc(-c4ccc(C(F)(F)F)cc4)nc23)c1
measured: 230 to 232 °C

GET /values?readout=melting point&item= O=S(=O)(O)c1cnc(C#Cc2cnn3c(C(F)(F)F)cc(-c4ccc(C(F)(F)F)cc4)nc23)s1
> 295 °C

###

quantity.name: melting point

compound: CN(C)CCNS(=O)(=O)c1ccc(C#Cc2cnn3c(C(F)F)cc(-c4ccc(C(F)(F)F)cc4)nc23)cc1
melting point: 157 to 159 °C
//
compound: CN(C)CCNS(=O)(=O)c1cc(C#Cc2cnn3c(C(F)F)cc(-c4ccc(C(F)(F)F)cc4)nc23)c(F)cc1F
melting point: 165 to 166 °C

Shift focus to the following entry.
GET /values?readout=melting point&item= NS(=O)(=O)c1cc(C#Cc2cnn3c(C(F)(F)F)cc(-c4ccc(Cl)c(Cl)c4)nc23)c(F)cc1F
308 to 310 °C

###

quantity.name: melting point

compound: CC(C)(CO)NS(=O)(=O)c1cncc(C#Cc2cnn3ccc(-c4ccc(Cl)cc4)nc23)c1 [Example 74]
melting point: 185 to 186 °C
//
compound: Nc1ccc(C#Cc2cnn3c(C(F)(F)F)cc(-c4ccc(C(F)(F)F)cc4)cc23)cn1 [Example 235]
melting point: 243 to 245 °C

Shift focus to the following entry.
GET /values?readout=melting point&item= COc1ncc(S(=O)(=O)NC(C)(CO)CO)cc1C#Cc1cnn2c(C(F)(F)F)cc(-c3ccc(C(F)(F)F)cc3)nc12 [Example 25]
233 to 235 °C

###

quantity.name: melting point

Please review the following examples before continuing.
compound: NS(=O)(=O)c1ccc(C#Cc2cnn3c(C(F)(F)F)cc(-c4ccc(Cl)c(Cl)c4)nc23)cc1 [Example 94]
melting point: 273 to 274 °C

compound: Cc1cc(-c2ccc(C(F)(F)F)cc2)cn2c(C#Cc3ccc(N)nc3)cnc12 [Example 209]
melting point: 239 to 240 °C

compound: Cc1nc(C#Cc2cnn3c(C(F)(F)F)cc(-c4ccc(C(F)(F)F)cc4)nc23)sc1S(N)(=O)=O [Example 54]
melting point: 245 to 246 °C

compound: O=S(=O)(NCCO)c1ccc(C#Cc2cnn3c(C(F)F)cc(-c4ccc(C(F)(F)F)cc4)nc23)cc1 [Example 140]
melting point: 191 to 194 °C

GET /values?readout=melting point&item= COc1ncc(S(=O)(=O)NC(C)(C)CO)cc1C#Cc1cnn2c(C(F)(F)F)cc(-c3ccc(C(F)(F)F)cc3)nc12 [Example 18]
209 to 210 °C

GET /values?readout=melting point&item= CC(O)c1ccc(C#Cc2cnn3c(C(F)(F)F)cc(-c4ccc(C(F)(F)F)cc4)nc23)cc1 (stereo not shown) [Example 52]
175 to 178 °C

GET /values?readout=melting point&item= CC(C)(C)NS(=O)(=O)c1ccc(C#Cc2cnn3c(C(F)F)cc(-c4cccc(C(F)(F)F)c4)nc23)s1 [Example 161]
201 °C

GET /values?readout=melting point&item= CN(C)CCNS(=O)(=O)c1cccc(C#Cc2cnn3c(C(F)(F)F)cc(-c4ccc(C(F)(F)F)cc4)nc23)c1 [Example 133]
146 to 147 °C

GET /values?readout=melting point&item= Nc1ncc(C#Cc2cnn3c(C4CC4)cc(-c4ccc(Cl)cc4)nc23)cn1 [Example 313]
243 to 246 °C

GET /values?readout=melting point&item= NS(=O)(=O)c1ccc(C#Cc2cnn3c(C(F)(F)F)cc(-c4ccc(Cl)c(Cl)c4)nc23)s1 [Example 89]
231 to 232 °C

###

quantity.name: melting point

Please review the following examples before continuing.
molecule: Nc1ccc(C#Cc2cnc3c(F)cc(-c4ccc(C(F)(F)F)cc4)cn23)cn1 [Example 239]
melting point: 281 to 282 °C
//
molecule: O=S(=O)(Nc1ccncc1)c1ccc(C#Cc2cnn3c(C(F)F)cc(-c4ccc(C(F)(F)F)cc4)nc23)s1 [Example 282]
melting point: 215 °C
//
molecule: NS(=O)(=O)c1ccc(C#Cc2cnn3c(C(F)(F)F)cc(-c4ccc(Cl)cc4)nc23)s1 [Example 97]
melting point: 239 to 240 °C
//
molecule: NS(=O)(=O)c1cccc(C#Cc2cnn3c(C(F)(F)F)cc(-c4ccc(Cl)cc4)nc23)c1 [Example 98]
melting point: 218 to 220 °C
//
molecule: COc1ccc(C#Cc2cnn3c(C4CC4)cc(-c4ccc(Cl)cc4)nc23)cc1S(=O)(=O)NC(C)(C)CO [Example 69]
melting point: 253 to 256 °C
//
molecule: CC(C)(O)c1cc(-c2ccc(Cl)cc2)nc2c(C#Cc3ccc(S(N)(=O)=O)s3)cnn12 [Example 154]
melting point: 206 to 208 °C
//
molecule: O=S(=O)(NCc1cccnc1)c1ccc(C#Cc2cnn3c(C(F)(F)F)cc(-c4ccc(C(F)(F)F)cc4)nc23)s1 [Example 273]
melting point: 177 °C
//
molecule: Cc1cc(-c2ccc(Cl)cc2)nc2c(C#Cc3ccc(N)nc3)cnn12 [Example 295]
melting point: 244 to 246 °C
//
molecule: NS(=O)(=O)c1ccc(C#Cc2cnc3ccc(-c4ccc(C(F)(F)F)cc4)cn23)s1 [Example 217]
melting point: 206 to 210 °C
//
molecule: O=S(=O)(NCCO)c1cc(C#Cc2cnn3c(C(F)F)cc(-c4ccc(C(F)(F)F)cc4)nc23)c(F)cc1F [Example 135]
melting point: 149 to 150 °C

GET /values?readout=melting point&item= Cc1cc(-c2ccc(Cl)cc2)cn2c(C#Cc3cnc(N)nc3)cnc12 [Example 221]
263 °C

GET /values?readout=melting point&item= NS(=O)(=O)c1cc(C#Cc2cnn3c(C(F)F)cc(-c4ccc(C(F)(F)F)cc4)nc23)c(F)cc1F [Example 31]
256 to 258 °C

GET /values?readout=melting point&item= O=S(=O)(O)c1cncc(C#Cc2cnn3c(C(F)(F)F)cc(-c4ccc(C(F)(F)F)cc4)nc23)c1 [Example 37]
> 288 °C

GET /values?readout=melting point&item= CC(C)(O)c1ccc(C#Cc2cnn3c(C(F)(F)F)cc(-c4ccc(C(F)(F)F)cc4)nc23)cc1 [Example 202]
170 to 171 °C

GET /values?readout=melting point&item= O=S(=O)(c1ccc(C#Cc2cnn3c(C(F)(F)F)cc(-c4ccc(C(F)(F)F)cc4)nc23)s1)N1CCNCC1 [Example 260]
223 °C

GET /values?readout=melting point&item= CC(C)(CO)NS(=O)(=O)c1cncc(C#Cc2cnn3c(C(F)F)cc(-c4ccc(C(F)(F)F)cc4)nc23)c1 [Example 27]
200 to 201 °C

GET /values?readout=melting point&item= CC(C)(CO)NS(=O)(=O)c1cccc(C#Cc2cnn3c(C(F)(F)F)cc(-c4ccc(Cl)cc4)nc23)c1 [Example 95]
226 to 229 °C

GET /values?readout=melting point&item= CC(=O)Nc1ncc(C#Cc2cnn3c(C(F)(F)F)cc(-c4ccc(C(F)(F)F)cc4)nc23)cn1 [Example 245]
293 °C

GET /values?readout=melting point&item= NS(=O)(=O)c1ccc(C#Cc2cnn3c(C(F)(F)F)cc(-c4ccc(C(F)(F)F)cc4)nc23)c(F)c1 [Example 45]
230 to 232 °C

GET /values?readout=melting point&item= Nc1ccc(C#Cc2cnn3c(C4CC4)cc(-c4ccc(Cl)cc4)nc23)cn1 [Example 294]
233 to 235 °C
